Data credit: PubChem BioAssay (NCI)

- System: CCRF-CEM leukemia
- assay_info: NCI-60 one-dose screen, 48 h
- assay_context: 10 µM unless noted
About 83,000 compounds went through this panel and 20% of them were active in at least one assay; those are over-represented in the sample as a whole. The source made the active and inactive calls. Rule for the calls: active = growth percent below 10; inactive = the rest.
Write down one outcome, taken from class 1 = active, class 0 = inactive

Answered cases to consult:
>  <compound>
N#C/C(=C\c1ccc(-c2cccc(C(F)(F)F)c2)o1)c1ccccc1

>  <classification>
class 0

$$$$
>  <compound>
N#C/C(=C\C=C\c1ccc(-c2cc(Cl)ccc2Cl)o1)c1nc2ccccc2s1

>  <classification>
class 0

$$$$
>  <compound>
COc1ccc2nc(Cl)c(/C=C3\CC(c4ccccc4)=NN(c4ccccc4)C3=O)cc2c1

>  <classification>
class 0

$$$$

Write down the call the test reported for this compound. Item: C=C(CNCCO)[C@@H]1CC[C@]2(CO)CC[C@]3(C)[C@H](CC[C@@H]4[C@@]5(C)CCC(N)C(C)(C)[C@@H]5CC[C@]43C)[C@@H]12 (some centres undefined)
class 1

Check the results log: what was the call for COc1cc2c(c(OC)c1OC)C(=O)CC(c1cccc(NC(=O)c3ccc(C#N)cc3)c1)O2 (centres undefined) ?
class 0

Please state the recorded outcome for this compound: Oc1ccc(/C=C/c2ccc(O)cc2)cc1
class 1

Test call, this compound: CCNc1ccc(-c2nc3ccccc3n3cccc23)cc1
class 0

Recorded test outcome, item C=C1CC[C@@H]2C(C)(C)[C@@H](O)CC[C@@]2(C)[C@@H]1COc1ccc2ccc(=O)oc2c1
class 0

State the result this test recorded for O=C1/C(=C2\SC(=S)N(C3CC3)C2=O)SC(=S)N1C1CC1 .
class 0

* * *

- System: UACC-257 melanoma
- assay_info: NCI-60 one-dose screen, 48 h
- assay_context: 10 µM unless noted
Compounds without any hit were thinned out: in the full panel of roughly 83,000, 20% have a hit. Activity calls are given as the source filed them. Rule for the calls: active = growth percent below 10; inactive = the rest.
Select the matching outcome among active, inactive

Answered examples (8):
>  <structure_as_smiles>
COc1cc(OC)c(C(=O)C(CN(C)C)CN(C)C)cc1OC

>  <classification>
active

$$$$
>  <structure_as_smiles>
Cc1ccc(C)c(/C=C2\CN(C(=O)OC(C)(C)C)C/C(=C\c3cc(C)ccc3C)C2=O)c1

>  <classification>
inactive

$$$$
>  <structure_as_smiles>
NC(=O)c1cccc([C@@H]2O[C@H](CO)[C@@H](O)[C@H]2O)c1

>  <classification>
inactive

$$$$
>  <structure_as_smiles>
CC1(C)CC[C@]2(CO)CC[C@]3(C)[C@H](CC[C@@H]4[C@@]5(C)CCCNC(C)(C)[C@@H]5CC[C@]43C)[C@H]2[C@H]1O

>  <classification>
inactive

$$$$
>  <structure_as_smiles>
COc1cc(OC)cc(-c2ccc(-c3ccc(C(=N)N)o3)o2)c1

>  <classification>
inactive

$$$$
>  <structure_as_smiles>
CCN(CC)CCCOc1ccc2ncnc(Nc3ccc(Oc4cccc(C(F)(F)F)c4)c(Cl)c3)c2c1

>  <classification>
active

$$$$
>  <structure_as_smiles>
S=c1[nH]c(=S)c2c(-c3ccccc3)c(-c3ccccc3)oc2[nH]1

>  <classification>
inactive

$$$$
>  <structure_as_smiles>
COc1ccc2nc(Cl)c(/C=C3\CC(c4ccccc4)=NN(c4ccccc4)C3=O)cc2c1

>  <classification>
inactive

$$$$

# evaluate next
Hello, I am checking results. What call was entered for O=C(Nc1ccc(Br)cc1)C1=NCCCCN1 ?
inactive

* * *

- Tested on: MALME-3M melanoma
- assay_info: NCI-60 one-dose screen, 48 h
- assay_context: 10 µM unless noted
The panel holds about 83,000 compounds, 20% with a hit somewhere; the sample as a whole holds those more often. The source made the active and inactive calls. Rule for the calls: active = growth percent below 10; inactive = the rest.
// allowed return values: active, inactive

Past entries and their recorded results:
>  <compound>
NC1=Nc2cc(OCCCCN3Cc4ccccc4C3)c(OCC3CC3)cc2C12CCCC2

>  <classification>
active

$$$$
>  <compound>
CCN1C(=O)N(CC)C2C1NN=c1s/c(=C3\C(=O)N(CCC(C)C)c4ccccc43)c(=O)n12 (centres undefined)

>  <classification>
inactive

$$$$
>  <compound>
O=c1c2c3c(sc2n2c(-c4cc(-c5ccccc5)no4)nnc2n1Cc1ccccc1)CCCC3

>  <classification>
inactive

$$$$
>  <compound>
Nc1ncnc2c1N=C(c1ccc3c(c1)OCO3)CC(c1cccc(Nc3ccnc4cc(C(F)(F)F)ccc34)c1)N2 (centres undefined)

>  <classification>
inactive

$$$$
>  <compound>
Cc1ccc(C)c2c(C)c(C(=O)Nc3cccc(-n4cccn4)c3)oc12

>  <classification>
inactive

$$$$
>  <compound>
COc1ccc(-c2cc(-c3ccccc3)nc(N3CCN(CCNc4ccnc5cc(Cl)ccc45)CC3)n2)cc1

>  <classification>
active

$$$$
>  <compound>
COc1ccc(/C=C/C(=O)c2cc3c(N)c(C(=O)Nc4cccc(Cl)c4C)sc3nc2C)cc1

>  <classification>
inactive

$$$$
>  <compound>
CN(CCC(=O)c1ccccc1)CCC(=O)c1ccccc1

>  <classification>
inactive

$$$$
>  <compound>
Cc1cccc(Oc2ccc(Nc3ncnc4ccc(NC(=O)CN5CCN(C)CC5)cc34)cc2Cl)c1

>  <classification>
active

$$$$
>  <compound>
CN(C)c1ccc(/C=C(\C#N)c2cc3ccccc3[nH]2)cc1

>  <classification>
inactive

$$$$

What is the recorded call for this compound in the test? N#Cc1c(-c2ccccc2)nc(SCc2nnc(-c3ccc(Cl)cc3)o2)[nH]c1=O
inactive

Status in this test for COc1ccc(C[n+]2c3ccccc3n3c4ccc(N)cc4ccc32)c(OC)c1OC ?
inactive

Outcome? O=C(NC(Cc1nnc2n(Cc3ccccc3)c(=O)c3c4c(sc3n12)CCCC4)c1ccccc1)c1ccccc1 (centres undefined)
inactive

Any idea what this test logged for CC(C)(C)c1cc(Cl)c(O)c(CNCCO)c1 ?
inactive

Give the logged outcome of this assay for the following compound: CCN1C(=O)N(CC)C2C1NN=c1s/c(=C\c3cnc(C)n3C)c(=O)n12 (centres undefined)
inactive

Dear colleague, could you share the recorded outcome for O=[N+]([O-])c1ccc(-c2cn3nc(-c4c[nH]c5ccccc45)sc3n2)cc1 when you have a moment?
inactive

What call does the record list for NC(=O)c1cnc(Nc2cccc(N)c2)nc1NCCCNC(=O)C1CCC1 ?
inactive

Hi, do you know how [2H]C([2H])([2H])Oc1ccc(F)cc1/C=C/C(=O)/C=C(/C=C/c1cc(F)ccc1OC([2H])([2H])[2H])OB(F)F came out in this test?
inactive

Answer briefly: the call reported for Cc1ccc(NC(=O)Cn2c(Br)nc3c2c(=O)n(C)c(=O)n3C)cc1 in this assay.
active

* * *

- Tested on: NCI-H460 lung
- assay_info: NCI-60 one-dose screen, 48 h
- assay_context: 10 µM unless noted
Compounds without any hit were thinned out: in the full panel of roughly 83,000, 20% have a hit. The source made the active and inactive calls. How the source made its calls: active means growth percent below 10; inactive means the rest.
Return exactly one item of active, inactive

>  <compound>
NNCCc1ccc(NC(=O)CCCc2ccc(C(=O)Nc3ccccc3N)cc2)cc1

>  <system_name>
NCI-H460 lung

>  <classification>
inactive

$$$$

Short answer needed: outcome of this test for COc1ccc(/C=C/c2c(C(=O)/C=C/c3ccccc3)c(C)nc3ccccc23)cc1 ?
active

Called result for Cc1cn(-c2cc(NC(=O)c3cncc(C#Cc4c(N)ncc5ccc(F)cc45)c3)cc(C(F)(F)F)c2)cn1
inactive

What was the test verdict on Cc1ccc(S(=O)(=O)c2nc(-c3ccccc3)oc2Sc2nc3ccccc3s2)cc1 ?
inactive

I would be grateful if you could indicate the recorded call for O=C(/C=C/c1ccccc1)c1ccc(Nc2nc(Nc3ccc(F)cc3)nc(Nc3ccc(Cl)cc3)n2)cc1 .
inactive

Kindly provide the recorded test outcome for the following compound: COc1ccc2nc(Cl)c(/C=C3\CC(c4ccccc4)=NN(c4ccccc4)C3=O)cc2c1
inactive

Field: outcome | Entry: Cc1nc2cc(O)c(O)cc2cc1Oc1ccc(NC(=O)Nc2ccc(Cl)c(Cl)c2)cc1
inactive

Which outcome was entered for the compound Cc1ccc(C)c2c(C)c(C(=O)Nc3cccc(-n4cccn4)c3)oc12 in this test?
inactive

What is the recorded call for this compound in the test? Cc1ccc(C=C2C(=O)NC(=O)NC2=O)cc1
inactive

Each compound tested received a call. Report the one for Cc1ccc2c(-n3nc(C#N)c(C#N)c3N)cc(=O)[nH]c2c1 .
inactive

Hey, what did the test say about CCOC(=O)c1ccccc1-c1c2ccc(=[N+](C)C)cc-2oc2cc(N(C)C)ccc12 ?
active

Recorded test outcome, item CCOC(=O)C1=C(C)/C(=C\c2[nH]c(C)c(C(=O)OCC)c2C)N=C1C
inactive

Please share the test call associated with COc1ccccc1N(C(C)=O)C1=C(Cl)C(=O)c2ccccc2C1=O .
active

In this assay, the call recorded for COc1ccc(C#Cc2ccc(=O)oc2-c2cc(OC)c(OC)c(OC)c2)cc1O was what?
inactive

Which outcome was entered for the compound N=c1c(S(=O)(=O)c2ccccc2)cc2c(=O)n3ccccc3nc2n1CC1CCCO1 (centres undefined) in this test?
inactive

So what was the verdict on Cc1ccc2nc(NC(=O)CSc3nc(-c4ccccc4)c(C#N)c4nnnn34)sc2c1 in this test?
inactive
